# measurement_parameters: in n-propanol, 313.15 K
property: solubility (mole fraction)
No unit in the answer, please; the number alone is enough.

Exercise: Fill blank: measured solubility (mole fraction) of the compound COC(=O)Nc1nc2ccccc2[nH]1 is ____.
Key: 5.82e-05

###

# measurement_parameters: in methanol, 293.15 K
property: solubility (mole fraction)
No unit in the answer, please; the number alone is enough.

Exercise: Fill blank: measured solubility (mole fraction) of the molecule COC(=O)Nc1nc2ccccc2[nH]1 is ____.
Key: 6.59e-05

###

# measurement_parameters: in n-propanol, 318.15 K
property: solubility (mole fraction)
No unit in the answer, please; the number alone is enough.

Exercise: Fill blank: measured solubility (mole fraction) of the compound COC(=O)Nc1nc2ccccc2[nH]1 is ____.
Key: 8.34e-05
